assay.comment: Solubility relative to 100 g of water at 20° C.
Type: physicochemical
measurement.conditions: per 100 g of water

- molecule: "NNC(=O)CCCCC(=O)NN [Dihydrazide compound-3, adipic acid dihydrazide, reference compound]"
  solubility relative to 100 g of water: "9.1 g"
- molecule: "NNC(=O)C(=O)NN [oxalic acid dihydrazide]"
  solubility relative to 100 g of water: "≤ 0.2 g"
- molecule: "NNC(=O)c1ccc(C(=O)NN)cc1 [Dihydrazide compound-1, terephthalic acid dihydrazide]"
  solubility relative to 100 g of water: "≤ 0.01 g"
- molecule: "NNC(=O)CCCCCCCCCCCCCCCCCCC(=O)NN [1,18-octadecane dicarbohydrazide]"
  solubility relative to 100 g of water: "≤ 0.1 g"
- molecule: "NNC(=O)CCCCCCCCCCC(=O)NN [Dihydrazide compound-2, 1,10-dodecane diacid dihydrazide]"
  solubility relative to 100 g of water: "≤ 0.01 g"
